Ref: paper PMC10094418

- TARGET SYSTEM: IL-6 (Homo sapiens, UniProt P05231)
- Sequence (P05231 30-212): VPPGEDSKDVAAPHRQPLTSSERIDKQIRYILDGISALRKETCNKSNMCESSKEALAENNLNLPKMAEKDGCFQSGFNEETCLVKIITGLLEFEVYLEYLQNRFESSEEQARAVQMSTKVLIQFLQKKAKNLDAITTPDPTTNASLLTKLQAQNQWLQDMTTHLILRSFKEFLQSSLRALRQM
ENDPOINT LABEL: pKd
Keep it numeric: pKd is minus log10 of the concentration in mol/L.

QUERY: Bench note: what pKd did O=C(/C=C/c1ccc(O)c(O)c1)c1ccc(O)cc1O [butein] show?
RESULT: 4.04

* * *

- Test system: A2780 cells
- PROCEDURE TEXT: Cell viability by MTT assay, A2780
- Type: cell-based
- CONDITIONS: Homo sapiens, 48 h
ENDPOINT LABEL: IC50 (µM)
Just the number in µM, nothing appended.

QUERY: Give A2780 cells IC50 for O=C(/C=C/c1ccc(O)c(O)c1)c1ccc(O)cc1O
RESULT: 64.7
